The reported measurements were obtained from ChEMBL document CHEMBL4513216.

- experiment notes: Toxicity liver stage against HepG2, at 10uM
- Assay type: cell-based
- Parameters: test concentration 10 uM, cell line HepG2-A16-CD81EGFP
- run parameters: human, HepG2-A16-CD81EGFP cells; read-out: INHIBITION
Recorded cytotoxicity at 10 µM by entry

compound: Nc1cc(-c2ccc(C(=O)O)cc2O)c2cc[nH]c2n1
unit string: %
cytotoxicity at 10 µM: 10.3
//
compound: Cc1nn(C)c(C)c1CC(=O)N1CCC(Nc2cccnn2)CC1
unit string: %
cytotoxicity at 10 µM: -8.8
//
compound: Cc1cc(N2CCCC2)nc(CNS(=O)(=O)Cc2ccccc2)n1
unit string: %
cytotoxicity at 10 µM: 7.48
//
compound: Cc1nc(COC[C@H]2CC[C@H]3NCC[C@H]3O2)cs1
unit string: %
cytotoxicity at 10 µM: -5.64
//
compound: COc1ccc(C[C@H]2CN(C(=O)c3cnoc3)CC[C@@H]2OC)cc1
unit string: %
cytotoxicity at 10 µM: 4.09
//
compound: CCOC1COC2(CCN(S(=O)(=O)c3cccc(F)c3)CC2)C1 (stereo not drawn)
unit string: %
cytotoxicity at 10 µM: 5.15
//
compound: CCCn1ncc(-c2ccnc(NC3CC(C)(C)NC(C)(C)C3)n2)c1C
unit string: %
cytotoxicity at 10 µM: 4.84
//
compound: CCC(CNC(=O)NC1CCN(C)CC1)Oc1ccccc1Cl (stereo not drawn)
unit string: %
cytotoxicity at 10 µM: 5.47
//
compound: CC[C@H]1N(C)CCC[C@]12CCC(=O)N2Cc1ccncc1
unit string: %
cytotoxicity at 10 µM: 7.99
//
compound: CCN(CC)C(=O)CSc1nc2cc(C)nc-2c(O)n1CC
unit string: %
cytotoxicity at 10 µM: 6.58
//
compound: COc1cccc(OCC2CCCN(c3cc(C(N)=O)ccn3)C2)c1 (stereo not drawn)
unit string: %
cytotoxicity at 10 µM: 2.13
//
compound: CCc1nc(NC2CCCN(C(=O)c3cccs3)C2)c2cnn(C)c2n1 (stereo not drawn)
unit string: %
cytotoxicity at 10 µM: 13.9
//
compound: CS(=O)(=O)Cc1cccc(C(=O)N2CCCC(n3cccn3)C2)c1 (stereo not drawn)
unit string: %
cytotoxicity at 10 µM: 5.05
//
compound: Cn1cc(C2SCC(=O)Nc3c2c(=O)[nH]n3C2CCOCC2)cn1 (stereo not drawn)
unit string: %
cytotoxicity at 10 µM: -0.348
//
compound: Cc1cnn(CCNCC(=O)NCCOc2ccc(F)cc2)c1
unit string: %
cytotoxicity at 10 µM: -4.45
//
compound: CN(C)Cc1cc(=O)n2c(n1)CN(Cc1ccco1)CCC2
unit string: %
cytotoxicity at 10 µM: 7.07
//
compound: O=C1CC(c2ccc(F)c(F)c2)c2snc(C(=O)O)c2N1 (stereo not drawn)
unit string: %
cytotoxicity at 10 µM: 6.95
//
compound: CCN1C[C@@H]2[C@@H](OC)CCN(C(=O)c3cc(C)nn3CC)[C@@H]2C1
unit string: %
cytotoxicity at 10 µM: -118
//
compound: CN(Cc1ccco1)Cc1cncc2c1CCN(Cc1ccoc1)C2
unit string: %
cytotoxicity at 10 µM: -108
//
compound: COCC1c2c(cnn2CC2CC2)CCN1Cc1ccsc1 (stereo not drawn)
unit string: %
cytotoxicity at 10 µM: 6.75
//
compound: CCn1c(CN(C)C(C)CSC)nc2c(F)cccc21 (stereo not drawn)
unit string: %
cytotoxicity at 10 µM: 5.73
//
compound: CC(O)CNc1ccc(C#N)cc1C(F)(F)F (stereo not drawn)
unit string: %
cytotoxicity at 10 µM: -42.7
//
compound: CC1CCN(S(=O)(=O)c2cccn(CC(=O)NC3CCCC3)c2=O)CC1
unit string: %
cytotoxicity at 10 µM: -14.6

* * *

Recorded cytotoxicity at 10 µM by entry
- experiment notes: Toxicity liver stage against HepG2, at 10uM
- Assay type: cell-based
- Parameters: test concentration 10 uM, cell line HepG2-A16-CD81EGFP
- run parameters: human, HepG2-A16-CD81EGFP cells; read-out: INHIBITION

compound: CCS(=O)(=O)c1ccccc1N1CCC(NC(=O)C(C)C)CC1
unit string: %
cytotoxicity at 10 µM: -3.87
//
compound: O=c1nc(CNc2ccccc2)[nH]n1Cc1ccccc1
unit string: %
cytotoxicity at 10 µM: 4.13
//
compound: CC(C)n1c(C2CCCN(CC(=O)NC(N)=O)C2)nc2ccccc21 (centres undefined)
unit string: %
cytotoxicity at 10 µM: -7.9
//
compound: Cc1nnsc1C(=O)N1CC[C@H](c2ccccc2)[C@@H]2[C@H]1CCCCN2C
unit string: %
cytotoxicity at 10 µM: -17.6

* * *

- experiment notes: Toxicity liver stage against HepG2, at 10uM
- Format: cell-based
- Set-up: test concentration 10 uM, cell line HepG2-A16-CD81EGFP
- run parameters: human, HepG2-A16-CD81EGFP cells; read-out: INHIBITION

compound: Cc1ncnc2c1CCN(C(=O)Cc1cccc(F)c1)CC2
cytotoxicity at 10 µM, %: -5.95
//
compound: CC(C)CC(NC(=O)c1ccc[nH]1)C(=O)N1CCC(CO)CC1 (stereo not given)
cytotoxicity at 10 µM, %: 6.74
//
compound: CSc1ccccc1NC(=O)CCN1CCC(C(=O)N(C)C)CC1
cytotoxicity at 10 µM, %: 6.47
//
compound: COCC(=O)Nc1ccccc1-c1ccc(=O)n(C)n1
cytotoxicity at 10 µM, %: 4.51
//
compound: COc1ccccc1CC(=O)NC(CC(=O)O)c1ccc(C)cc1 (stereo not given)
cytotoxicity at 10 µM, %: 11.2
//
compound: Cc1cc(CN2CCN(CC(=O)NC3(C#N)CCCCC3)CC2)on1
cytotoxicity at 10 µM, %: 5.83
//
compound: Cc1nc(C2CCCN2CC(=O)NCCOc2ccccc2)no1 (stereo not given)
cytotoxicity at 10 µM, %: -6.54
//
compound: O=C1CCCC2=Nc3nonc3NC(c3cccc(F)c3F)C12 (stereo not given)
cytotoxicity at 10 µM, %: 0.285
//
compound: CCOc1ncccc1NC(=O)N1CCN(c2cccc(C)c2C)CC1
cytotoxicity at 10 µM, %: 81.2
//
compound: CCC1CN(CCNS(C)(=O)=O)c2ccccc2O1 (stereo not given)
cytotoxicity at 10 µM, %: -2.67
//
compound: O=C(Nc1cc(F)ccc1OCC1CCCO1)N1CCCC1 (stereo not given)
cytotoxicity at 10 µM, %: -6.49
//
compound: Cc1nc(C)c(CCNC(Cc2ccncc2)C(F)(F)F)s1 (stereo not given)
cytotoxicity at 10 µM, %: -4.96
//
compound: Cc1cc(O)nc(C2CCCNC2)n1 (stereo not given)
cytotoxicity at 10 µM, %: -9.14
//
compound: CCN(C)C(=O)c1cccc(S(=O)(=O)NCCc2csc(N)n2)c1
cytotoxicity at 10 µM, %: -45.2
//
compound: Cc1cc(C)n(CC2CCCCN2C(=O)c2ccc3c(c2)OCO3)n1 (stereo not given)
cytotoxicity at 10 µM, %: 5.44

* * *

- experiment notes: Toxicity liver stage against HepG2, at 10uM
- Type: cell-based
- Design: test concentration 10 uM, cell line HepG2-A16-CD81EGFP
- run parameters: human, HepG2-A16-CD81EGFP cells; read-out: INHIBITION
measurement name: cytotoxicity at 10 µM (%)

compound: CCCNc1cc(C(=O)N2CCOCC2)nc(C)n1
numeric value: 10.8
--
compound: Cc1cc(=O)n2nc(Oc3cc(Cl)cc(Cl)c3)sc2n1
numeric value: 16.8
--
compound: Cc1ccccc1N1CC2(CCN(S(=O)(=O)c3ccccc3)C2)CC1=O (configuration not stated)
numeric value: 6.24
--
compound: COc1cccc([C@@H]2CN(C3CCCC3)C[C@H]2C(=O)O)c1
numeric value: -5.89
--
compound: COC(=O)CNC(=O)c1ccn(-c2ccc(Cl)c(Cl)c2)n1
numeric value: -8.77
--
compound: Cc1ccc(NC(=O)CNc2cccc(C(N)=O)c2C)c(C)c1
numeric value: 17.6
--
compound: COc1cccc(OCc2cc(C(=O)NC[C@H]3CCCN3)n[nH]2)c1
numeric value: -4.9

* * *

- experiment notes: Toxicity liver stage against HepG2, at 10uM
- Format: cell-based
- Set-up: test concentration 10 uM, cell line HepG2-A16-CD81EGFP
- run parameters: human, HepG2-A16-CD81EGFP cells; read-out: INHIBITION
measurement name: cytotoxicity at 10 µM (%)

compound: CCSc1ncc(-c2nccn2CCN(C)C)cn1
numeric value: 2.41
--
compound: Cc1cnn(C2CN(Cc3nc4cc(Cl)ccc4n3C)C2)c1
numeric value: -1.16
--
compound: CSCC[C@@H](CO)n1ccnc1-c1nccn1C
numeric value: -2.84
--
compound: O=C(c1ccncc1)N1Cc2ccccc2OC2(CCOCC2)C1
numeric value: -1.03
--
compound: CNC(=O)[C@@H]1C[C@H]2CN(Cc3ccco3)C[C@H]2N1C
numeric value: 7.76
--
compound: CN(Cc1cc2cc(F)ccc2[nH]1)c1cc(C2CCCNC2)ncn1 (stereo not given)
numeric value: 7.16
--
compound: CCn1ncc2c1CCCC2NCc1cccc2c1OCCO2 (stereo not given)
numeric value: 1.71
--
compound: CN1CCc2c(C#N)c(NCCc3ccccc3)n3cnnc3c2C1
numeric value: 12.4
--
compound: CN(C)c1ccc(NC(=O)N2CCc3sccc3C2)cn1
numeric value: -4.16
--
compound: CSc1ccc(C(=O)N2C[C@@H]3CC[C@H]2CN(Cc2cccnc2)C3)cc1
numeric value: -7.38
--
compound: CCn1cnnc1C1CCN(C(=O)c2cc3c(s2)CCC3)CC1
numeric value: -8.93
--
compound: CNC(=O)C1CCCN(C(=O)c2ccccc2-n2cc(CN)cn2)C1 (stereo not given)
numeric value: -2.3
--
compound: Cc1ccc(N2CCO[C@H]3CN(Cc4cc(C)on4)CC[C@H]3C2=O)cn1
numeric value: -72.2
--
compound: CCOCc1nnc(NCc2cccc(C)c2)o1
numeric value: 16.3
--
compound: CN(C)C(=O)CN1CCC2(C1)CN(CC1CCOCC1)C2
numeric value: -9.91
--
compound: O=C(c1cccnc1O)N1CCC2(CCCO2)CC1
numeric value: 7.28
--
compound: COc1ccccc1-c1cc(C(=O)N(C)C)nc2c1cnn2C
numeric value: 7.83
--
compound: COc1ccc(CN2C[C@@H]3CN(Cc4ccoc4)C[C@@H]3C2=O)cc1
numeric value: -8.37
--
compound: c1cncc(CNCc2cccs2)c1
numeric value: 10.1
--
compound: CCc1nc(CN(C)C2CCN(CCc3ccncc3)C2)no1 (stereo not given)
numeric value: -20.2
--
compound: Cc1ccc(CN2CCC3(CCCN(C(=O)N(C)C)C3)C2)cc1 (stereo not given)
numeric value: 6.28
--
compound: N#CCCN(Cc1ccccn1)C(=O)Nc1cccnc1
numeric value: 0.525
--
compound: Cc1cnn(CC2CCCCN2C(=O)Cc2c(C)noc2Cl)c1 (stereo not given)
numeric value: -5.43
--
compound: Cc1noc(C)c1CN1CCOCC12CCN(c1ncccn1)CC2
numeric value: -104
--
compound: CNc1nc(C(=O)N2C[C@@H]3CC[C@H]2CN(S(C)(=O)=O)C3)cs1
numeric value: 0.977
--
compound: CC(C)c1cc(-c2nn3c(C(C)C)nnc3s2)[nH]n1
numeric value: 0.999
--
compound: COCCCn1c(CN2CCSCC2)cnc1S(=O)(=O)C1CCCC1
numeric value: -3.89
--
compound: Cc1ccnc(N2CCCC(c3nncn3C3CC3)C2)n1 (stereo not given)
numeric value: -5.45
--
compound: O=C(NCC1(CO)CC1)c1ccccc1F
numeric value: 9.99
--
compound: COCCC(=O)Nc1ccnn1-c1ccccc1
numeric value: -2.55
--
compound: CCN1C[C@@H]2[C@@H](OC)CCN(S(=O)(=O)c3ccccc3F)[C@@H]2C1
numeric value: -0.902
--
compound: CN(C)S(=O)(=O)CCCOc1cccc(-n2ccnc2)c1
numeric value: 14
--
compound: Cn1nc(CNC(=O)C2COc3ccccc3O2)cc1C1CC1 (stereo not given)
numeric value: 7.52
--
compound: O=C(NCCO)Nc1ccc(Cl)cc1-n1cccc1
numeric value: 7.82
--
compound: Cc1ccc(OCCC(=O)NC(C)c2ccncc2)cc1 (stereo not given)
numeric value: -3.86
--
compound: c1coc(CN2C[C@@H]3OCCN(CCN4CCCC4)[C@@H]3C2)c1
numeric value: -1.52
--
compound: Cc1ccc(-c2nc(CNCC3CN(C)CCO3)co2)c(C)c1 (stereo not given)
numeric value: -16.4
--
compound: CCc1nc2n(n1)CC(Nc1ccnc(-c3ccccc3)n1)CC2 (stereo not given)
numeric value: -11.7
--
compound: COCCN(C(=O)c1ccsc1)c1ccc(C#N)cc1
numeric value: 4.19
--
compound: Cc1cc(NC(=O)NCCO)nn1-c1ccc(Cl)cc1Cl
numeric value: -136
